test: Cytotoxicity against rat L6 cells assessed as growth inhibition after 70 hrs by alamar blue assay; type: toxicity
// boundary case: IC50 at 70 h equal to 30 µM maps to no (0); strictly smaller maps to yes (1)

Here's an entry: COc1cc([C@@H]2c3cc4c(cc3[C@H](O)[C@H]3COC(=O)[C@H]23)OCO4)cc(OC)c1OC . Is its IC50 at 70 h below 30 µM?
yes (1)

Here's an entry: Clc1ccc2c(NCCN3CCCCCC3)ccnc2c1 . Is its IC50 at 70 h below 30 µM?
yes (1)

Here's an entry: Clc1ccc2c(NCCCN3CCCCCC3)ccnc2c1 . Is its IC50 at 70 h below 30 µM?
yes (1)

Here's an entry: CCCN(CCC)CC(=O)N1CCN(c2ccnc3cc(Cl)ccc23)CC1 . Is its IC50 at 70 h below 30 µM?
no (0)

Here's an entry: Clc1ccc2c(N3CCN(CCN4CCCCCC4)CC3)ccnc2c1 . Is its IC50 at 70 h below 30 µM?
yes (1)

Here's an entry: CN1CCN(CCCNc2ccnc3cc(Cl)ccc23)CC1 . Is its IC50 at 70 h below 30 µM?
yes (1)

Reference source for all entries: ChEMBL document CHEMBL3875207
